Below, each entry is listed with its recorded Mean relative potency.
ASSAY_PROTOCOL: Mean relative potency is the ratio of potencies of 'Ac-(Cha)RAMASL-NH2' and compound, to inhibit MHC class II DRB1*0101
Starred links: 1 amine or outer side, 2 acyl side, 3 side chain; linkers in the order of their positions; H or OH if unused. Non-standard residues stand in square brackets, D forms with d. Residues, ends and D or L forms follow the SMILES beside them. X6 = CC1CCC(C[C@H](N[*:1])C(=O)[*:2])CC1; Cha = N[C@@H](CC1CCCCC1)C(=O)O; NMeA = CN[C@@H](C)C(=O)O
PARAMETER: Mean relative potency

{"COMPOUND": "CSCC[C@H](NC(=O)[C@H](C)NC(=O)[C@H](CCCN=C(N)N)NC(=O)[C@H](CC1CCCCC1)NC(C)=O)C(=O)N(C)[C@@H](C)C(=O)N[C@@H](CO)C(=O)N[C@@H](CC(C)C)C(N)=O (Ac-[Cha]RAM[NMeA]SL-NH2)", "PARAMETER": "Mean relative potency", "RESULT": 1.22}
{"COMPOUND": "CSCC[C@H](NC(=O)[C@H](CCSC)NC(=O)[C@H](CCCN=C(N)N)NC(=O)[C@H](CC1CCCCC1)NC(C)=O)C(=O)N[C@@H](C)C(N)=O (Ac-[Cha]RMMA-NH2)", "PARAMETER": "Mean relative potency", "RESULT": 0.59}
{"COMPOUND": "CSCC[C@H](NC(=O)[C@H](C)NC(=O)[C@H](CCCN=C(N)N)NC(=O)[C@H](CC1CC2CCC1C2)NC(C)=O)C(=O)N[C@@H](C)C(=O)N[C@@H](CO)C(=O)N[C@@H](CC(C)C)C(N)=O (stereo in doubt; 2)", "PARAMETER": "Mean relative potency", "RESULT": 0.52}
{"COMPOUND": "CSCC[C@H](NC(=O)[C@H](C)NC(=O)[C@H](CCCN=C(N)N)NC(=O)[C@H](CC1CCC(C)CC1)NC(C)=O)C(=O)N[C@@H](C)C(=O)N[C@@H](CO)C(=O)N[C@@H](CC(C)C)C(N)=O (some centres undefined) (Ac-[X6]RAMASL-NH2)", "PARAMETER": "Mean relative potency", "RESULT": 1.37}

---

TESTED_ON: Cathepsin B (Bos taurus)
ASSAY_PROTOCOL: Percent of original compound remaining with cathepsin B after incubation for 4 hrs was determined by HPLC
Starred links: 1 amine or outer side, 2 acyl side, 3 side chain; linkers in the order of their positions; H or OH if unused. Non-standard residues stand in square brackets, D forms with d. Residues, ends and D or L forms follow the SMILES beside them. ξ: configuration not given here. Haic = O=C1[C@@H](N[*:1])CCc2cccc3c2N1[C@H](C(=O)[*:2])C3; NMePhg = CN[C@H](C(=O)O)c1ccccc1; Cha = N[C@@H](CC1CCCCC1)C(=O)O; NMeL = CN[C@@H](CC(C)C)C(=O)O; NMeA = CN[C@@H](C)C(=O)O; ξNMeA = CNC(C)C(=O)O
Each entry below carries its reported % remaining.

{"MOLECULE": "CSCC[C@@H](NC(=O)[C@H](NC(=O)[C@H](CCCN=C(N)N)NC(=O)[C@H](CC1CCCCC1)NC(C)=O)C(C)(C)C)C(=O)N(C)[C@@H](C)C(=O)N[C@@H](CO)C(=O)N[C@H](C(N)=O)C(C)(C)C", "READING_UNIT": "%", "% remaining": 97}
{"MOLECULE": "CSCC[C@H](NC(=O)[C@H](C)NC(=O)[C@H](CCCN=C(N)N)NC(=O)[C@H](CC1CCCCC1)NC(C)=O)C(=O)N(C)[C@@H](C)C(=O)N[C@@H](CO)C(=O)N[C@@H](CC(C)C)C(N)=O (Ac-[Cha]RAM[NMeA]SL-NH2)", "READING_UNIT": "%", "% remaining": 0}
{"MOLECULE": "CC(=O)N[C@@H](CC1CCCCC1)C(=O)N[C@@H](CCCN=C(N)N)C(=O)N(C)[C@H](C(=O)N[C@H]1CCc2cccc3c2N(C1=O)[C@H](C(=O)N[C@@H](CO)C(=O)N(C)C(C)C(N)=O)C3)c1ccccc1 (some centres undefined) (Ac-[Cha]R[NMePhg][Haic]S[ξNMeA]-NH2)", "READING_UNIT": "%", "% remaining": 141}
{"MOLECULE": "CC(=O)N[C@@H](CC1CCCCC1)C(=O)N[C@@H](CCCN=C(N)N)C(=O)N(C)[C@H](C(=O)N[C@H]1CCc2cccc3c2N(C1=O)[C@H](C(=O)N[C@@H](CO)C(=O)N(C)[C@@H](CC(C)C)C(N)=O)C3)c1ccccc1 (Ac-[Cha]R[NMePhg][Haic]S[NMeL]-NH2)", "READING_UNIT": "%", "% remaining": 95}

---

ASSAY_PROTOCOL: Mean relative potency is the ratio of potencies of 'Ac-(Cha)RAMASL-NH2' and compound, to inhibit MHC class II DRB1*0101
Non-standard residues stand in square brackets, D forms with d. Residues, ends and D or L forms follow the SMILES beside them. Phe(3-I) = N[C@@H](Cc1cccc(I)c1)C(=O)O; Cha = N[C@@H](CC1CCCCC1)C(=O)O; NMeA = CN[C@@H](C)C(=O)O

{"COMPOUND": "CSCC[C@H](NC(=O)[C@H](C)NC(=O)[C@H](CCCN=C(N)N)NC(=O)[C@H](CC1CCCCC1)NC(C)=O)C(=O)N[C@H](C)C(=O)N[C@@H](CO)C(=O)N(C)[C@@H](CC(C)C)C(N)=O", "Mean relative potency": 0.85}
{"COMPOUND": "CSCC[C@H](NC(=O)[C@H](C)N(C)C(=O)[C@H](CCCN=C(N)N)NC(=O)[C@H](CC1CCCCC1)NC(C)=O)C(=O)N[C@@H](C)C(=O)N[C@@H](CO)C(=O)N[C@@H](CC(C)C)C(N)=O (Ac-[Cha]R[NMeA]MASL-NH2)", "Mean relative potency": 1.02}
{"COMPOUND": "CSCC[C@H](NC(=O)[C@H](C)NC(=O)[C@H](CCCN=C(N)N)NC(=O)[C@H](CC1CCCCC1)NC(C)=O)C(=O)N[C@@H](C)C(=O)N[C@@H](CO)C(=O)N[C@@H](CC(C)C)C(N)=O (Ac-[Cha]RAMASL-NH2)", "Mean relative potency": 1}
{"COMPOUND": "CSCC[C@H](NC(=O)[C@H](C)NC(=O)[C@H](CCCN=C(N)N)NC(=O)[C@H](Cc1cccc(I)c1)NC(C)=O)C(=O)N[C@@H](C)C(=O)N[C@@H](CO)C(=O)N[C@@H](CC(C)C)C(N)=O (Ac-[Phe(3-I)]RAMASL-NH2)", "Mean relative potency": 0.61}

---

ASSAY_PROTOCOL: Mean relative potency is the ratio of potencies of 'Ac-(Cha)RAMASL-NH2' and compound, to inhibit MHC class II DRB1*0404
Non-standard residues stand in square brackets, D forms with d. Residues, ends and D or L forms follow the SMILES beside them. Cha = N[C@@H](CC1CCCCC1)C(=O)O
The threshold is inclusive: Mean relative potency of exactly 0.03 counts as satisfied; values below receive not satisfied.

{"COMPOUND": "CSCC[C@H](NC(=O)[C@H](C)NC(=O)[C@H](CCCN=C(N)N)NC(=O)[C@H](CC1CCCCC1)NC(C)=O)C(N)=O (Ac-[Cha]RAM-NH2)", "GROUP": "not satisfied"}
{"COMPOUND": "CSCC[C@H](NC(=O)[C@H](C)NC(=O)[C@H](CCCN=C(N)N)NC(=O)[C@H](CC1CCCCC1)NC(C)=O)C(=O)N[C@H](C)C(=O)N[C@@H](CO)C(N)=O", "GROUP": "satisfied"}
{"COMPOUND": "CC(=O)N[C@@H](CC1CCCCC1)C(=O)N[C@@H](CCCN=C(N)N)C(=O)N[C@@H](C)C(N)=O", "GROUP": "not satisfied"}
{"COMPOUND": "CSCC[C@H](NC(=O)[C@H](C)NC(=O)[C@H](CCCN=C(N)N)NC(=O)[C@H](CC1CCCCC1)NC(C)=O)C(=O)N[C@@H](C)C(=O)N[C@@H](CO)C(=O)N[C@@H](CC(C)C)C(N)=O (Ac-[Cha]RAMASL-NH2)", "GROUP": "satisfied"}

---

ASSAY_PROTOCOL: Mean relative potency is the ratio of potencies of 'Ac-(Cha)RAMASL-NH2' and compound, to inhibit MHC class II DRB1*0401
Starred links: 1 amine or outer side, 2 acyl side, 3 side chain; linkers in the order of their positions; H or OH if unused. Non-standard residues stand in square brackets, D forms with d. Residues, ends and D or L forms follow the SMILES beside them. X10 = O=C([C@H](Cc1ccc2c(c1)OCO2)N[*:1])[*:2]; Cha = N[C@@H](CC1CCCCC1)C(=O)O
PARAMETER: Mean relative potency

{"MOLECULE": "CSCC[C@H](NC(=O)[C@H](C)NC(=O)[C@H](CCCN=C(N)N)NC(=O)[C@H](CC1CCCCC1)NC(C)=O)C(=O)N[C@H](C)C(=O)N[C@@H](CO)C(N)=O", "RESULT": 1.14}
{"MOLECULE": "CSCC[C@H](NC(=O)[C@H](C)NC(=O)[C@H](CCCN=C(N)N)NC(=O)[C@H](Cc1ccc2c(c1)OCO2)NC(C)=O)C(=O)N[C@@H](C)C(=O)N[C@@H](CO)C(=O)N[C@@H](CC(C)C)C(N)=O (Ac-[X10]RAMASL-NH2)", "RESULT": 1.65}
{"MOLECULE": "CSCC[C@H](NC(=O)[C@H](CCSC)NC(=O)[C@H](CCCN=C(N)N)NC(=O)[C@H](CC1CCCCC1)NC(C)=O)C(=O)N[C@@H](C)C(N)=O (Ac-[Cha]RMMA-NH2)", "RESULT": 0.15}
